Assay Text: Acidity constant was determined
Assay type: ADME
Value Type: pKa

Item under review: CC(CCC(=O)N1CCC[C@@H]1C(=O)O)C1CC[C@H]2[C@@H]3C[C@H](O)C4C[C@H](O)CC[C@]4(C)[C@H]3CC[C@]12C (some centres not stated) . Reported pKa? 3.9

Item under review: CO[C@H]1C[C@H](C(=O)O)N(C(=O)CCC(C)C2CC[C@H]3[C@@H]4[C@@H](O)CC5C[C@H](O)CC[C@]5(C)[C@H]4CC[C@]23C)C1 (some centres not stated) . Reported pKa? 3.5

Item under review: CC(CCC(=O)N1CCC[C@H]1C(=O)O)C1CC[C@H]2[C@@H]3[C@@H](O)CC4C[C@H](O)CC[C@]4(C)[C@H]3CC[C@]12C (some centres not stated) . Reported pKa? 3.9

Item under review: CC(CCC(=O)NCC(=O)O)C1CC[C@H]2[C@@H]3[C@H](O)CC4C[C@H](O)CCC4(C)[C@H]3CCC12C (some centres not stated) . Reported pKa? 3.9

Item under review: CC(CCC(=O)N1CCC[C@@H]1C(=O)O)C1CC[C@H]2[C@@H]3[C@H](O)[C@H](O)C4C[C@H](O)CC[C@]4(C)[C@H]3CC[C@]12C (some centres not stated) . Reported pKa? 3.9

Item under review: CC(CCC(=O)N1C[C@@H](O)C[C@@H]1C(=O)O)C1CC[C@H]2[C@@H]3[C@@H](O)CC4C[C@H](O)CC[C@]4(C)[C@H]3CC[C@]12C (some centres not stated) . Reported pKa? 3.1

Item under review: CC(CCC(=O)N1CCC[C@@H]1C(=O)O)C1CC[C@H]2[C@@H]3[C@@H](O)CC4C[C@H](O)CC[C@]4(C)[C@H]3CC[C@]12C (some centres not stated) . Reported pKa? 3.9

* * *

System: Rattus norvegicus
Assay Text: Secretion of cholesterol in Bile Fistula rats after the iv administration of compound, expressed as the maximum secretion rate i
Assay type: ADME, organism-based
Condition Details: in vivo
Please assign rule not met whenever Smax is at or above 60 nM/min/kg, and rule met whenever it is below.

# TODO verify Smax < 60 nM/min/kg strictly for this compound: CC(CCC(=O)N1C[C@@H](O)C[C@@H]1C(=O)O)C1CC[C@H]2[C@@H]3[C@@H](O)CC4C[C@H](O)CC[C@]4(C)[C@H]3CC[C@]12C (some centres not stated) rule not met

# TODO verify Smax < 60 nM/min/kg strictly for this compound: CC(CCC(=O)N1CCC[C@@H]1C(=O)O)C1CC[C@H]2[C@@H]3[C@H](O)[C@H](O)C4C[C@H](O)CC[C@]4(C)[C@H]3CC[C@]12C (some centres not stated) rule met

# TODO verify Smax < 60 nM/min/kg strictly for this compound: CC(CCC(=O)N1CCC[C@@H]1C(=O)O)C1CC[C@H]2[C@@H]3[C@@H](O)CC4C[C@H](O)CC[C@]4(C)[C@H]3CC[C@]12C (some centres not stated) rule met

# TODO verify Smax < 60 nM/min/kg strictly for this compound: CC(CCC(=O)N1CCC[C@H]1C(=O)O)C1CC[C@H]2[C@@H]3[C@@H](O)CC4C[C@H](O)CC[C@]4(C)[C@H]3CC[C@]12C (some centres not stated) rule met

# TODO verify Smax < 60 nM/min/kg strictly for this compound: C[C@H](CCC(=O)O)[C@H]1CC[C@H]2[C@@H]3[C@@H](O)C[C@@H]4C[C@H](O)CC[C@]4(C)[C@H]3CC[C@]12C rule met

# TODO verify Smax < 60 nM/min/kg strictly for this compound: CO[C@H]1C[C@H](C(=O)O)N(C(=O)CCC(C)C2CC[C@H]3[C@@H]4[C@@H](O)CC5C[C@H](O)CC[C@]5(C)[C@H]4CC[C@]23C)C1 (some centres not stated) rule met
